The measured values listed here are drawn from patent EP0308983A2.

test: Paramagnetic relaxation properties in human plasma at 37°C; format: physicochemical; settings: 93 µM final concentration, 37°C, triplicate
MEASURE_NAME: T₁ value (ms)
One number for each entry, in ms.

TEST_SMILES	T₁ value, ms
C[NH2+]CC(=O)[O-].C[NH2+]CC(=O)[O-].O.O.[Cl-].[Cl-].[Mn+2]	232
N[C@@H](CO)C(=O)O.N[C@@H](CO)C(=O)O.O.O.[Cl-].[Cl-].[Mn+2]	238
O.O.O=C(O)[C@@H]1CCCN1.O=C(O)[C@@H]1CCCN1.[Cl-].[Cl-].[Mn+2]	234

Pending compound:
[Q] I am curious: what T₁ value value has been reported for "O.O.O=C(O)[C@@H]1C[C@@H](O)CN1.O=C(O)[C@@H]1C[C@@H](O)CN1.[Cl-].[Cl-].[Mn+2]" ?
[A] 246

----------
Exercise: state measured T₂ value for each of the compounds provided.
assay: Paramagnetic relaxation properties in human plasma at 37°C; type: physicochemical; conditions: 90 µM final concentration, 37°C
Numbers only, in ms.

See these solved cases before continuing.
TEST_SMILES	T₂ value / ms
CC(C)C[C@H](N)C(=O)O.CC(C)C[C@H](N)C(=O)O.O.O.[Cl-].[Cl-].[Mn+2]	192
N[C@@H](Cc1ccccc1)C(=O)O.N[C@@H](Cc1ccccc1)C(=O)O.O.O.[Cl-].[Cl-].[Mn+2]	186
NC(=O)CC[C@H](N)C(=O)O.NC(=O)CC[C@H](N)C(=O)O.O.O.[Cl-].[Cl-].[Mn+2]	188
CC[C@H](C)[C@H](N)C(=O)O.CC[C@H](C)[C@H](N)C(=O)O.O.O.[Cl-].[Cl-].[Mn+2]	182

Pending compound:
[Q] I am curious: what T₂ value value has been reported for "NC(=O)C[C@H]([NH3+])C(=O)[O-].NC(=O)C[C@H]([NH3+])C(=O)[O-].O.O.[Cl-].[Cl-].[Mn+2]" ?
[A] 190

----------
assay: Paramagnetic relaxation properties in human plasma at 37°C; assay type: physicochemical; conditions: 92 µM final concentration, 37°C, triplicate
MEASURE_NAME: T₁ value (ms)
Give bare numbers, in ms.

See these solved cases before continuing.
TEST_SMILES	NUMERIC_VALUE
N[C@@H](CS)C(=O)O.N[C@@H](CS)C(=O)O.O.O.[Cl-].[Cl-].[Mn+2]	247
N=C(N)NCCC[C@H](N)C(=O)O.N=C(N)NCCC[C@H](N)C(=O)O.O.O.[Cl-].[Cl-].[Mn+2]	439
NCCCC[C@H](N)C(=O)O.NCCCC[C@H](N)C(=O)O.O.O.[Cl-].[Cl-].[Mn+2]	230
C[C@@H](O)[C@H](N)C(=O)O.C[C@@H](O)[C@H](N)C(=O)O.O.O.[Cl-].[Cl-].[Mn+2]	241
N[C@@H](Cc1c[nH]cn1)C(=O)O.N[C@@H](Cc1c[nH]cn1)C(=O)O.O.O.[Cl-].[Cl-].[Mn+2]	235

Could you report T₁ value for every entry in the following list?
1. CC(C)[C@H](N)C(=O)O.CC(C)[C@H](N)C(=O)O.O.O.[Cl-].[Cl-].[Mn+2]
2. CSCC[C@H](N)C(=O)O.CSCC[C@H](N)C(=O)O.O.O.[Cl-].[Cl-].[Mn+2]

[A]
[250, 257]
